Listed here: items and their measured IC50.
Target: porcine pancreatic lipase (Sus scrofa, UniProt P00591)
Sequence (P00591 1-450): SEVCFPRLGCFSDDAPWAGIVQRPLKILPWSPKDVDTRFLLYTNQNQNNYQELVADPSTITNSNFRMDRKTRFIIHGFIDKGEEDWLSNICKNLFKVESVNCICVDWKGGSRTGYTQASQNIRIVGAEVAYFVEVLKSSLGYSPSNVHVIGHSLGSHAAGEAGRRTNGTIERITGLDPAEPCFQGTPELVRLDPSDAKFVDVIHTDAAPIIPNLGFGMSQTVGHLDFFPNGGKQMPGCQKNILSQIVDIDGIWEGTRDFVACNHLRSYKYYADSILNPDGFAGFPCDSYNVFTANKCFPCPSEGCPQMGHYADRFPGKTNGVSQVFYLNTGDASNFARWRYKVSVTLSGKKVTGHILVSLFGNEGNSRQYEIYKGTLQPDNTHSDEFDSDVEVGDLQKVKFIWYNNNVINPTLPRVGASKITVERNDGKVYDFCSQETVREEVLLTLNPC
valueType: IC50

compound	valueType	measured
CCCCCCCCCCCCCCCCOc1nc2ccc(C)cc2c(=O)o1 [Cetilistat, reference compound]	IC50	18.4 µM
O=c1cc(-c2ccc(O)cc2)oc2cc(O)cc(O)c12	IC50	12.5 µM

###

Biological target: porcine pancreatic lipase (Sus scrofa)
Construct: purchased Sigma Aldrich, Co. (Tokyo, Japan)
Sequence (P00591 1-450): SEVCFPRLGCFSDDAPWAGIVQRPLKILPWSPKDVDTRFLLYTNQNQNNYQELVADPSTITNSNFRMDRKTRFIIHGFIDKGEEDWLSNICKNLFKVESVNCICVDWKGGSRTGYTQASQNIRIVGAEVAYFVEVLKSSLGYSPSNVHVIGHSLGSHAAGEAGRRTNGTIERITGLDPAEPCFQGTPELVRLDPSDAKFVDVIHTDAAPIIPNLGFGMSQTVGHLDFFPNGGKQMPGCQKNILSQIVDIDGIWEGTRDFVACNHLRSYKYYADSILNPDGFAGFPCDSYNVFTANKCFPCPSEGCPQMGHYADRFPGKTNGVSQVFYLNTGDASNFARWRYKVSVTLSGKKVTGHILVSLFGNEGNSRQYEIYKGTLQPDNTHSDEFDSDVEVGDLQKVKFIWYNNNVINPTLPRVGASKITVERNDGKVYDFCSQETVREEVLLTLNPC
Assay: Pancreatic lipase inhibitory activity
Type: biochemical
Details: substrate 4-methylumbelliferyl oleate, pH 7.4, triplicate

compound	Enzyme Inhibitory Activities Lipase IC50
O=c1cc(-c2ccc(O)cc2)oc2cc(O)cc(O)c12	active
O=C(/C=C/c1ccc(O)cc1)OC[C@H]1O[C@@H](Oc2cc(O)c3c(c2)OC(c2ccc(O)cc2)CC3=O)[C@H](O)[C@@H](O)[C@@H]1O (stereo partly shown)	active
C[C@@H]1O[C@@H](O[C@@H]2[C@@H](O)[C@H](OCCc3ccc(O)c(O)c3)O[C@H](CO)[C@H]2OC(=O)/C=C/c2ccc(O)c(O)c2)[C@H](O)[C@H](O)[C@H]1O [Verbascoside (1), verbascoside]	inactive
COc1cc(C(=O)O)ccc1O	inactive

###

experiment: DPPH free radical scavenging activity; details: 20 min, room temperature, absorbance at 520 nm, triplicate
pIC50: −log10 of the molar value.
I would appreciate it if you labelled entries Criterion met when pIC50 is 4 or higher, otherwise Criterion not met.

compound	assignedLabel
O=c1cc(-c2ccc(O)cc2)oc2cc(O)cc(O)c12 [Apigenin (3), apigenin]	Criterion not met
O=C(/C=C/c1ccc(O)cc1)OC[C@H]1O[C@@H](Oc2cc(O)c3c(c2)OC(c2ccc(O)cc2)CC3=O)[C@H](O)[C@@H](O)[C@@H]1O (some centres unmarked) [6″-O-p-Coumaroylprunin (4), 6″-O-p-coumaroylprunin]	Criterion not met
C[C@@H]1O[C@@H](O[C@@H]2[C@@H](O)[C@H](OCCc3ccc(O)c(O)c3)O[C@H](CO)[C@H]2OC(=O)/C=C/c2ccc(O)c(O)c2)[C@H](O)[C@H](O)[C@H]1O [Verbascoside (1), verbascoside]	Criterion met
Cc1c(C)c2c(c(C)c1O)CCC(C)(C(=O)O)O2 (centres unmarked) [Trolox, reference compound]	Criterion met
COc1cc(C(=O)O)ccc1O [Vanillic acid (2), vanillic acid]	Criterion not met

###

Listed here: items and their measured pIC50.
Biological target: mushroom tyrosinase
Experiment: Tyrosinase inhibitory activity
Conditions: substrate L-tyrosine, 25 °C, pH 6.8, triplicate; read-out: Enzyme Inhibitory Activities Tyrosinase IC50
Experimental: Antioxidants are substances that scavenge free radicals and related reactive species. […] The tyrosinase inhibitory activity was evaluated using the method reported by […] et al., with slight modifications. […] Finally, 20 μL of the substrate L-tyrosine (2 mM) were added, and the absorbance was measured at 476 nm. […] The data was analyzed using Microsoft Office Excel (2007) and results for DPPH free radical and in vitro enzyme inhibitory activities were expressed as IC50 value (μM).
pIC50: −log10 of the molar value.
valueType: pIC50

compound	measured
O=c1cc(-c2ccc(O)cc2)oc2cc(O)cc(O)c12	4.64
OC[C@H]1O[C@@H](Oc2ccc(O)cc2)[C@H](O)[C@@H](O)[C@@H]1O [Arbutin, arbutin, reference compound]	3.36
C[C@@H]1O[C@@H](O[C@@H]2[C@@H](O)[C@H](OCCc3ccc(O)c(O)c3)O[C@H](CO)[C@H]2OC(=O)/C=C/c2ccc(O)c(O)c2)[C@H](O)[C@H](O)[C@H]1O [Verbascoside (1), verbascoside]	4.01
O=C(/C=C/c1ccc(O)cc1)OC[C@H]1O[C@@H](Oc2cc(O)c3c(c2)OC(c2ccc(O)cc2)CC3=O)[C@H](O)[C@@H](O)[C@@H]1O (stereo partly shown)	3.87

###

Listed here: items and their measured IC50.
target: α-glucosidase; experiment: α-Glucosidase inhibitory activity; conditions: substrate p-nitrophenyl-α-D-glucopyranoside, 37 °C, pH 6.8, triplicate; read-out: Enzyme Inhibitory Activities α-Glucosidase IC50

compound	IC50
O=C(/C=C/c1ccc(O)cc1)OC[C@H]1O[C@@H](Oc2cc(O)c3c(c2)OC(c2ccc(O)cc2)CC3=O)[C@H](O)[C@@H](O)[C@@H]1O (some centres unmarked) [6″-O-p-Coumaroylprunin (4), 6″-O-p-coumaroylprunin]	46.3 µM
O=c1cc(-c2ccc(O)cc2)oc2cc(O)cc(O)c12 [Apigenin (3), apigenin]	34.7 µM
